interaction score listing for selected binders.
Target: T1, 4H369-AA
T1 chain: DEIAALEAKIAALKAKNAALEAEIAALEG
Assay: two-hybrid library CCmax;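 note: natural log of median RNA to DNA barcode read ratio; higher means stronger binding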
result.type: interaction score

| binder | result.type | result |
| --- | --- | --- |
| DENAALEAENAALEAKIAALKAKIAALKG [4H1198-AA] | interaction score | -1.45 |
| DKIAALEAKNAALKAKIAALEAKNAALKG [4H2536-AA] | interaction score | 0.0403 |
| DEIAALEAKIAALKAKNAALEAEIAALEG [4H369-AA] | interaction score | -0.526 |
| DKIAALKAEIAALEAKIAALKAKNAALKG [4H2608-AA] | interaction score | 0.124 |

Provenance of the data: paper PMC10397247
